- ASSAYED_SYSTEM: T1, protocadherin-15 EC1+2, wild type, His-tagged (mouse, UniProt Q99PJ1 27-259)
- T1 construct: Protocadherin-15 (PCDH15), mouse, N-terminal fragment EC1+2; pET21a, NdeI/XhoI; predicted molecular weight 27.5 kDa; Held on the Ni-NTA chip by its His tag in SPR; also called pcdh15; pcdh15(WT); not shown: His6, C-terminal, kept
- EXPERIMENT_NOTES: thermal scanning (thermal stability shift assay with SYPRO orange); pcdh15 fixed at 0.1 mg/mL (~4 μM), cdh23 0.1 to 0.5 mg/mL (~4 to 20 μM; cdh23:pcdh15 1:1 to 5:1); SEC buffer (20 mM Tris-HCl pH 7.5, 150 mM KCl, 50 mM NaCl, 2 mM CaCl2); 10 to 95°C in 0.2°C steps, 5 s equilibration; read-out: shift of the Tm of pcdh15 (ΔTm)
- CONDITION_CONTEXT: both partners purified
MEASURE: ΔTm of pcdh15 at cdh23:pcdh15 5:1 (°C)
Report the value in °C with no unit label.

Incoming: # return recorded ΔTm of pcdh15 at cdh23:pcdh15 5:1 for entry cadherin-23 EC1+2 T15E, His-tagged (domain or fragment, mouse, Cadherin-23 (CDH23), mouse, N-terminal fragment EC1+2; Mutant of m1 made with QuikChange; also called cdh23(T15E)) QVNRLPFFTNHFFDEYLLISEDTPVGSSVTQLLARDMDNDPLVFGVSGEEASRFFAVEPDTGVVWLRQPLDRETKSEFTVEFSVSDHQGVITRKVNIQVGDVNDNAPTFHNQPYSVRIPENTPVGTPIFIVNATDPDLGAGGSVLYSFQPPSPFFAIDSARGIVTVIQELDYEVTQAYQLTVNATDQDKTRPLSTLANLAIIITD
Outgoing: 6.7
